- System: HCT116 MCTS
- Test protocol: MTT assay in 3D multicellular tumor spheroid (MCTS) model
- Type: cell-based, human
- Test settings: 3D MCTS, 72 h continuous drug action, read-out: IC50 (μM) ± S.D. HCT116, 3D cell culture model
Experimental readout: IC50 (µM)
Give bare numbers, in µM.

Can you share its IC50? I mean this compound: N.N.[Cl][Pt][Cl] [CDDP, cis-diamminedichloridoplatinum(II), reference compound]
19.6

###

Provide the reported IC50 of each item.
- System: LS-174
- Test protocol: MTT cytotoxicity assay, monolayer culture
- Assay type: cell-based, human
- Test settings: 72 h continuous drug action, 2D monolayer, read-out: IC50 (μM) ± S.D. LS-174
Answers are plain numbers, in µM.

Compound	Uom	IC50
N.N.[Cl][Pt][Cl] [CDDP, cis-diamminedichloridoplatinum(II), reference compound]	µM	19

Then there is this compound:
Quick check: IC50 on LS-174, item Cc1ccc(C(C)C)cc1.O=C1NCCc2ccccc2-c2[nH]c3ccc([N+]4=Cc5cccc[n+]5[Os-]4[Cl])cc3c21.[Cl-] [1b] ?
182
